pIC50: −log10 of the molar value.
In what follows, each item is paired with its pIC50 for Histone deacetylase 1 (Homo sapiens, UniProt Q13547).
Measure name: pIC50

Smiles notation | Measure name | Experimental value
O=C(NO)c1cnc(Nc2nnc(-c3ccc(Cl)cc3)s2)nc1 | pIC50 | 8.00
CN(C)c1ccc(-c2nnc(Nc3ncc(C(=O)NO)cn3)o2)cc1 | pIC50 | 8.05
O=C(NO)c1cnc(Nc2nnc(-c3ccc(F)cc3)o2)nc1 | pIC50 | 8.05

# credit: ChEMBL document CHEMBL1833854
